# System: A. baumannii CDC-0036
# methodDescription: microbe, parasite or virus in culture
# Assay type: cell-based
# conditionParameters: Acinetobacter baumannii, CDC0036, read-out: MIC, A. baumannii CDC-0036
The entries below are paired with their reported MIC.

Solved entries (count: 5):
1) O=C(NCCCN1CCN(C(=O)NC(C(=O)N[C@H]2Cc3ccc(F)c(C(=O)O)c3OB2O)c2cc(F)c(O)c(O)c2Cl)C(=O)C1=O)c1ccc(O)c(F)c1Cl (stereo partly drawn) [Example 418]
2 to 4 µg/mL
2) O=C(NCCCN1CCN(C(=O)NC(C(=O)N[C@H]2Cc3ccc(F)c(C(=O)O)c3OB2O)c2cc(F)c(O)c(O)c2Cl)C(=O)C1=O)c1cc(O)ccc1Cl (stereo partly drawn) [Example 408]
8 to 16 µg/mL
3) O=C(O)c1c(F)ccc2c1OB(O)[C@@H](NC(=O)C(NC(=O)N1CCN(Cc3ccc(O)c(O)c3Cl)C(=O)C1=O)c1ccc(P(=O)(O)O)cc1)C2 (stereo partly drawn) [Example 8]
2 to 4 µg/mL
4) O=C(CN1CCN(C(=O)NC(C(=O)N[C@H]2Cc3ccc(F)c(C(=O)O)c3OB2O)c2cc(F)c(O)c(O)c2Cl)C(=O)C1=O)Nc1nccs1 (stereo partly drawn) [Example 235]
2 to 4 µg/mL
5) O=C(O)c1c(F)ccc2c1OB(O)[C@@H](NC(=O)[C@H](NC(=O)N1CCN(Cc3ccc(O)c(O)c3Cl)C(=O)C1=O)c1cccc(P(=O)(O)O)c1)C2 (single isomer, unassigned) [Example 163]
< 1 µg/mL

Proceed to the following item.
The molecule listed as O=C(NCCCN1CCN(C(=O)N[C@H](C(=O)N[C@H]2Cc3ccc(F)c(C(=O)O)c3OB2O)c2cc(F)c(O)c(O)c2Cl)C1=O)c1cccc(O)c1 [Example 254] has a reported MIC of > 128 µg/mL

---

# targetOrTestSystem: PBP3 from Pseudomonas aeruginosa (PAO1) (Pseudomonas aeruginosa, UniProt G3XD46)
# Sequence (G3XD46 whole entry): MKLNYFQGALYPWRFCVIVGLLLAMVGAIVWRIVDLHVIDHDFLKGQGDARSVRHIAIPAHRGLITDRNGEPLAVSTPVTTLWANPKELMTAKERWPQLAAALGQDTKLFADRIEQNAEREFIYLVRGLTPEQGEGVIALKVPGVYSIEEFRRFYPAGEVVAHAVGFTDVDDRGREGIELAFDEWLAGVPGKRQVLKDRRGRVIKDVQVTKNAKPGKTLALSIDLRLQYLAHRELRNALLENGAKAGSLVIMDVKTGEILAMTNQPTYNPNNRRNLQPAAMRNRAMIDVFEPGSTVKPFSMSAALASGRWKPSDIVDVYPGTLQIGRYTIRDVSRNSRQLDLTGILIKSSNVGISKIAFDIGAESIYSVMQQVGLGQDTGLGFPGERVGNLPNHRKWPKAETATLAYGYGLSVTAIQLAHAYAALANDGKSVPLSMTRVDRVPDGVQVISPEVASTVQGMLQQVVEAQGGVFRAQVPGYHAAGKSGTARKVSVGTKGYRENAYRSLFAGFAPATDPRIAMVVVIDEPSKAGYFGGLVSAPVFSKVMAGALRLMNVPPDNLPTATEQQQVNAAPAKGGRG
# methodDescription: Bocillin-FL fluorescence polarization competition binding, P. aeruginosa PBP3
# conditionParameters: Binding affinity to P. aeruginosa PBP3; fluorescence polarization competition binding assay using Bocillin-FL; read-out: P. aeruginosa PBP3 Potency
measuredMetric: IC50

Some solved entries appear below for comparison.
1. O=C(NCCS(=O)(=O)N1CCN(C(=O)N[C@@H](C(=O)N[C@H]2Cc3ccc(F)c(C(=O)O)c3OB2O)c2cc(F)c(O)c(O)c2Cl)C1=O)c1nccs1
< 10 µM
2. O=C1CC[C@H](C(=O)NC(C(=O)N[C@H]2Cc3cccc(C(=O)O)c3OB2O)c2ccc(P(=O)(O)O)cc2)N1 (stereo partly drawn)
10 to 50 µM
3. O=C(O)c1c(F)ccc2c1OB(O)[C@@H](NC(=O)C(NC(=O)N1CCN(C3CCN(C(=O)Nc4ccc(F)c(O)c4F)CC3)C(=O)C1=O)c1cc(F)c(O)c(O)c1Cl)C2 (stereo partly drawn)
< 10 µM
4. NCCN1CCN(C(=O)NC(C(=O)N[C@H]2Cc3cccc(C(=O)O)c3OB2O)c2ccc(P(=O)(O)O)cc2)C(=O)C1=O (stereo partly drawn)
10 to 50 µM
5. N[C@@H](C(=O)N[C@H]1Cc2cccc(C(=O)O)c2OB1O)c1ccc(P(=O)(O)O)cc1 (single isomer, unassigned)
> 250 µM
6. CCN1CCN(C(=O)NC(C(=O)N[C@H]2Cc3cccc(C(=O)O)c3OB2O)c2ccc(P(=O)(O)O)cc2)C1=O (stereo partly drawn)
< 10 µM
7. O=C(NCCCN1CCN(C(=O)N[C@@H](C(=O)N[C@H]2Cc3ccc(F)c(C(=O)O)c3OB2O)c2cc(F)c(O)c(O)c2Cl)C(=O)C1=O)c1ccncc1O
< 10 µM
8. O=C(NCCCN1CCN(C(=O)NC(C(=O)N[C@H]2Cc3ccc(F)c(C(=O)O)c3OB2O)c2cc(F)c(O)c(O)c2Cl)C(=O)C1=O)c1ccncc1 (stereo partly drawn)
< 10 µM
9. CN(CCN1CCN(C(=O)N[C@@H](C(=O)N[C@H]2Cc3ccc(F)c(C(=O)O)c3OB2O)c2cc(F)c(O)c(O)c2Cl)C(=O)C1=O)Cc1cccnc1
< 10 µM
10. Cc1cnccc1C(=O)NCCCN1CCN(C(=O)NC(C(=O)N[C@H]2Cc3ccc(F)c(C(=O)O)c3OB2O)c2cc(F)c(O)c(O)c2Cl)C(=O)C1=O (stereo partly drawn)
< 10 µM

For O=C(NCCS(=O)(=O)N1CCN(C(=O)NC(C(=O)N[C@H]2Cc3ccc(F)c(C(=O)O)c3OB2O)c2cc(F)c(O)c(O)c2Cl)C1=O)c1cccc(O)c1 (stereo partly drawn) the compound record lists IC50 as < 10 µM

Data point: O=C(N[C@@H](C(=O)N[C@H]1Cc2cccc(C(=O)O)c2OB1O)c1ccc(P(=O)(O)O)cc1)c1ccc(O)c(O)c1Cl ; IC50 = > 250 µM
